# test_protocol: Cytotoxicity against human Patu-T cells by crystal violet staining
# Format: functional, cell-based
# conditions: PaTu 8988t
A collection of compounds and their measured IC50

>  <compound>
Sc1ncnc2nc[nH]c12 [MERCAPTOPURINE ANHYDROUS]

>  <unit_abbrev>
nM

>  <IC50>
4090

$$$$
>  <compound>
Nc1ccn([C@@H]2O[C@H](CO)[C@@H](O)C2(F)F)c(=O)n1

>  <unit_abbrev>
nM

>  <IC50>
2.8

$$$$
>  <compound>
O=c1[nH]cc(F)c(=O)[nH]1

>  <unit_abbrev>
nM

>  <IC50>
2080

$$$$
>  <compound>
Nc1nc2[nH]cnc2c(=S)[nH]1

>  <unit_abbrev>
nM

>  <IC50>
3430

$$$$

This collection of values is drawn from ChEMBL document CHEMBL3525937.
